# System: VDR homodimer (NR concentration 270 nM)
# protocol-summary: PBM binding z-score (relative to random genomic background probes); higher = stronger binding; sequences stand for … in GC…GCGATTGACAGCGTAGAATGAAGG
Consider the following sequences; for each one, report its PBM binding z-score.

Data request: Look up and report measured PBM binding z-score for this entry: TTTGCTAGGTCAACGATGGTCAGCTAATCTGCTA
Data returned: 0.00226

Data request: Answer with reported PBM binding z-score of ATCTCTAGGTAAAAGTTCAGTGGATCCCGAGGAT
Data returned: 1.72

Data request: Using the record for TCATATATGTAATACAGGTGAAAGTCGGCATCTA , state its measured PBM binding z-score.
Data returned: 0.192

Data request: Give the reported value of PBM binding z-score for this record: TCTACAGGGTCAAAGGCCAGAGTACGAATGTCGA
Data returned: 2.55

Data request: Using known records, supply PBM binding z-score for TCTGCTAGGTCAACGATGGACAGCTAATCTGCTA
Data returned: -0.736

Data request: Look up and report measured PBM binding z-score for this entry: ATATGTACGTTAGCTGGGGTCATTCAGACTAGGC
Data returned: 5.16

Data request: Provide one value: measured PBM binding z-score of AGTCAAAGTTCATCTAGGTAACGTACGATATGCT
Data returned: 5.04

Data request: Tell me measured PBM binding z-score for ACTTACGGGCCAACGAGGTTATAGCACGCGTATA please.
Data returned: 1.31
